- Test system: SR leukemia
- method notes: NCI-60 one-dose screen, 48 h
- particulars: 10 µM unless noted
Compounds without any hit were thinned out: in the full panel of roughly 83,000, 20% have a hit. Calls of active or inactive are those of the source. The calls were made as follows: active = growth percent below 10; inactive = the rest.
A correct response names exactly one class from Yes = active, No = inactive

Would you please look over these solved cases?
>  <compound>
CC[C@H](CO)Nc1nc(NCc2ccccc2)c2ncn(C(C)C)c2n1

>  <classification>
Yes

$$$$
>  <compound>
C=CC(=O)Nc1cc(Nc2nccc(-c3cn(C)c4ccccc34)n2)c(OC)cc1N(C)CCN(C)C

>  <classification>
Yes

$$$$
>  <compound>
Clc1nc(Cl)c2ncn(CC#CCn3cnc4c(Cl)nc(Cl)nc43)c2n1

>  <classification>
Yes

$$$$
>  <compound>
C=C1C[C@H](O)[C@H](Br)C(C)(C)[C@@]12CCC(C)=C(Cl)C2

>  <classification>
Yes

$$$$
>  <compound>
O=C(O)C1(Cc2cccc(Nc3nccs3)n2)CCC(Oc2cccc(Cl)c2F)CC1 (stereo not given)

>  <classification>
No

$$$$

stdin: Identify the outcome logged in this assay for the compound shown: Nc1ncnc2c1c(-c1cccc(OCc3ccccc3)c1)cn2C1CC(CN2CCC2)C1 (stereo not given)
stdout: Yes

stdin: Recorded test call requested for c1cc[n+](Cc2c3ccccc3cc3c2ccc2ccccc23)cc1
stdout: No

stdin: Called result for C/C(=C(/c1ccc(Cl)cc1)c1ccc(OCCN2CCCCC2)cc1)c1ccccc1
stdout: No

stdin: What classification did Nc1ncnc2c1ccn2-c1cccc(NC(=O)c2ccc(N3CCOCC3)c(C(F)(F)F)c2)c1 end up with in this test?
stdout: No

stdin: For CCCC(=O)OCC1OC(n2cnc3c(=S)nc[nH]c32)C(OC(=O)CCC)C1OC(=O)CCC (stereo not given) , which call appears in the assay record?
stdout: No
